Biological target: Interferon-induced guanylate-binding protein 1/Serine/threonine-protein kinase pim-1 (Homo sapiens) (UniProt P11309+P32455)
Sequence (P11309 whole entry, looked up): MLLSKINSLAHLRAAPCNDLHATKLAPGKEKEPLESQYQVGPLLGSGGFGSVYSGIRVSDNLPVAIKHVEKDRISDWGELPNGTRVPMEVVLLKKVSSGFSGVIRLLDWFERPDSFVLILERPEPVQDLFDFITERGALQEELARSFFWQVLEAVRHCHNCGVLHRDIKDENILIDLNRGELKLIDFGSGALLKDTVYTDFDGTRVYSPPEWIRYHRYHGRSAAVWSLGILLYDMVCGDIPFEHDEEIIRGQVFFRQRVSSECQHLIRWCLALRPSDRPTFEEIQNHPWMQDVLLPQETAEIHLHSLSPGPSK
Sequence (P32455 whole entry, looked up): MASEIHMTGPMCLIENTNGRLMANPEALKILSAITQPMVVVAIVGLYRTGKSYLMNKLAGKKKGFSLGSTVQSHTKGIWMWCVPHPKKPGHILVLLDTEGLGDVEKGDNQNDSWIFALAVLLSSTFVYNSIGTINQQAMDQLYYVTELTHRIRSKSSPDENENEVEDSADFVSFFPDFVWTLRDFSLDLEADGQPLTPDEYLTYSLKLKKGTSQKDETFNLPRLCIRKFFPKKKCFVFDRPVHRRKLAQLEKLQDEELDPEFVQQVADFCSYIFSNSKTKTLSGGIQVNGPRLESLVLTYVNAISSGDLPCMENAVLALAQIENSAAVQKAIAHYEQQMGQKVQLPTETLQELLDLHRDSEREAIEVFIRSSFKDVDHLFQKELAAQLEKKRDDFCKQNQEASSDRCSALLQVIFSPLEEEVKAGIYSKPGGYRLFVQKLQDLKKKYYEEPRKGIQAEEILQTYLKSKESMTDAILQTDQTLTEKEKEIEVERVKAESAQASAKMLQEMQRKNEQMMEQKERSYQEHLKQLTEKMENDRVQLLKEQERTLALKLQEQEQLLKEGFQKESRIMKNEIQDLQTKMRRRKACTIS
Test: Inhibition of GBP1 (unknown origin)-PIM1 (unknown origin) interaction at 100 nM by SPR analysis
Type: protein assay
The source made the active and inactive calls. The rule behind the calls is not given here.
TEST_READOUT: inhibition

compound="COc1ccc2c(c1)N(CCO)C1=C(C(=O)OC1)C2c1ccccc1 (stereo not drawn)" obs_value=65%
compound="O=C1OCC2=C1C(c1cccc(Cl)c1)c1cc3c(cc1N2CCO)CCC3 (stereo not drawn)" obs_value=inactive
compound="COc1ccc(C2C3=C(COC3=O)N(CCO)c3cc4c(cc32)OCCO4)cc1OC (stereo not drawn)" obs_value=inactive
compound="COc1cc(C2C3=C(COC3=O)N(CCO)c3cc4c(cc32)OCCO4)cc(OC)c1O (stereo not drawn)" obs_value=inactive
compound="COc1cc(C2C3=C(COC3=O)N(CCO)c3cc4c(cc32)CCC4)cc(OC)c1O (stereo not drawn)" obs_value=inactive
compound="COc1cccc(C2C3=C(COC3=O)N(CCO)c3cc4c(cc32)CCC4)c1 (stereo not drawn)" obs_value=inactive
compound="O=C1OCC2=C1C(c1cccc(Cl)c1)c1cc3c(cc1N2CCO)OCCO3 (stereo not drawn)" obs_value=inactive
compound="O=C1OCC2=C1C(c1ccc(Cl)c(Cl)c1)c1cc3c(cc1N2CCO)CCC3 (stereo not drawn)" obs_value=inactive
compound="COc1cc2c(cc1OC)N(CCO)C1=C(C(=O)OC1)C2c1cccc(Cl)c1 (stereo not drawn)" obs_value=10%
compound="COc1ccc2c(c1)N(CCO)C1=C(C(=O)OC1)C2c1cc(OC)c(OC)c(OC)c1 (stereo not drawn)" obs_value=10%
compound="COc1cc(C2C3=C(COC3=O)N(CCO)c3cc4c(cc32)OCCO4)cc(OC)c1OC (stereo not drawn)" obs_value=inactive
compound="O=C1OCC2=C1C(c1cccc(Br)c1)c1cc3c(cc1N2CCO)CCC3 (stereo not drawn)" obs_value=inactive
compound="COc1cc2c(cc1OC)N(CCO)C1=C(C(=O)OC1)C2c1cccc(Br)c1 (stereo not drawn)" obs_value=10%
compound="COc1cc(C2C3=C(COC3=O)N(CCO)c3cc4c(cc32)OCO4)cc(OC)c1O (stereo not drawn)" obs_value=inactive
compound="O=C1OCC2=C1C(c1ccccc1)c1cc3c(cc1N2CCO)CCC3 (stereo not drawn)" obs_value=inactive
compound="O=C1OCC2=C1C(c1ccccc1)c1cc3c(cc1N2CCO)OCO3 (stereo not drawn)" obs_value=inactive
compound="COc1cc2c(cc1OC)N(CCO)C1=C(C(=O)OC1)C2c1ccccc1 (stereo not drawn)" obs_value=inactive
compound="COc1cc(C2C3=C(COC3=O)N(CCO)c3cc4c(cc32)CCC4)cc(OC)c1OC (stereo not drawn)" obs_value=inactive
compound="COc1cccc(C2C3=C(COC3=O)N(CCO)c3cc4c(cc32)OCO4)c1 (stereo not drawn)" obs_value=inactive
compound="O=C1OCC2=C1C(c1cccc(Br)c1)c1cc3c(cc1N2CCO)OCCO3 (stereo not drawn)" obs_value=inactive
compound="CCc1ccc2c(c1)N(CCO)C1=C(C(=O)OC1)C2c1cccc(Cl)c1 (stereo not drawn)" obs_value=10%
compound="COc1cc(C2C3=C(COC3=O)N(CCO)c3cc4c(cc32)OCO4)cc(OC)c1OC (stereo not drawn)" obs_value=inactive
compound="CCc1ccc2c(c1)N(CCO)C1=C(C(=O)OC1)C2c1cc(OC)c(OC)c(OC)c1 (stereo not drawn)" obs_value=inactive

====

Target: Interferon-induced guanylate-binding protein 1/Serine/threonine-protein kinase pim-1 (Homo sapiens) (UniProt P11309+P32455)
Experiment: Inhibition of GBP1 (unknown origin)-PIM1 (unknown origin) interaction at 100 nM by SPR analysis
Type: protein assay
Calls of active or inactive are those of the source. The calls are words filed in the database; no cut-off is given here.
TEST_READOUT: inhibition

compound="COc1ccc(C2C3=C(COC3=O)N(CCO)c3cc4c(cc32)CCC4)cc1 (stereo unspecified)" obs_value=inactive
compound="COc1ccc(C2C3=C(COC3=O)N(CCO)c3cc4c(cc32)OCO4)cc1 (stereo unspecified)" obs_value=inactive
compound="COc1ccc2c(c1)N(CCO)C1=C(C(=O)OC1)C2c1ccc(OC)c(OC)c1 (stereo unspecified)" obs_value=inactive
compound="COc1cc2c(cc1OC)N(CCO)C1=C(C(=O)OC1)C2c1cc(OC)c(OC)c(OC)c1 (stereo unspecified)" obs_value=10%
compound="COc1ccc(C2C3=C(COC3=O)N(CCO)c3cc(OC)c(OC)cc32)cc1 (stereo unspecified)" obs_value=inactive
compound="COc1ccc(C2C3=C(COC3=O)N(CCO)c3cc(OC)c(OC)cc32)cc1OC (stereo unspecified)" obs_value=10%
compound="COc1cccc(C2C3=C(COC3=O)N(CCO)c3cc(OC)ccc32)c1 (stereo unspecified)" obs_value=10%
compound="COc1ccc(C2C3=C(COC3=O)N(CCO)c3cc4c(cc32)OCO4)cc1OC (stereo unspecified)" obs_value=inactive
compound="COc1cccc(C2C3=C(COC3=O)N(CCO)c3cc4c(cc32)OCCO4)c1 (stereo unspecified)" obs_value=inactive
compound="COc1cccc(C2C3=C(COC3=O)N(CCO)c3cc(OC)c(OC)cc32)c1 (stereo unspecified)" obs_value=10%
compound="O=C1OCC2=C1C(c1cccc(Cl)c1)c1cc3c(cc1N2CCO)OCO3 (stereo unspecified)" obs_value=inactive
compound="COc1ccc(C2C3=C(COC3=O)N(CCO)c3cc4c(cc32)CCC4)cc1OC (stereo unspecified)" obs_value=inactive
compound="O=C1OCC2=C1C(c1ccc(Cl)c(Cl)c1)c1cc3c(cc1N2CCO)OCCO3 (stereo unspecified)" obs_value=inactive
compound="COc1ccc(C2C3=C(COC3=O)N(CCO)c3cc(OC)ccc32)cc1 (stereo unspecified)" obs_value=10%
compound="COc1ccc(C2C3=C(COC3=O)N(CCO)c3cc4c(cc32)OCCO4)cc1 (stereo unspecified)" obs_value=inactive
compound="O=C1OCC2=C1C(c1ccccc1)c1cc3c(cc1N2CCO)OCCO3 (stereo unspecified)" obs_value=inactive
compound="COc1ccc2c(c1)N(CCO)C1=C(C(=O)OC1)C2c1cccc(Br)c1 (stereo unspecified)" obs_value=10%
compound="CCc1ccc2c(c1)N(CCO)C1=C(C(=O)OC1)C2c1ccc(Cl)c(Cl)c1 (stereo unspecified)" obs_value=inactive
compound="CCc1ccc2c(c1)N(CCO)C1=C(C(=O)OC1)C2c1cccc(Br)c1 (stereo unspecified)" obs_value=inactive
compound="CCc1ccc2c(c1)N(CCO)C1=C(C(=O)OC1)C2c1ccccc1 (stereo unspecified)" obs_value=inactive
compound="COc1cc2c(cc1OC)N(CCO)C1=C(C(=O)OC1)C2c1ccc(Cl)c(Cl)c1 (stereo unspecified)" obs_value=inactive
